Property: inhibition; scope: individual compounds
- MEASUREMENT PROTOCOL: Antioxidant activity assessed as inhibition of AAPH-induced linoleic acid lipid peroxidation at 1 x 10^-4 M by UV-absorbance method relative to control
- Assay type: functional
# do not omit the unit; it follows the number

- COMPOUND: "COc1cc(NC(C)CCCNC(=O)Nc2cccc(Cl)c2)c2ncccc2c1 (stereo unspecified)"
  inhibition: "84.1%"
- COMPOUND: "COc1cc(NC(C)CCCNC(=O)Nc2ccc(Br)cc2)c2ncccc2c1 (stereo unspecified)"
  inhibition: "80.4%"

Lookup: Name the recorded inhibition for Cc1c(C)c2c(c(C)c1O)CCC(C)(C(=O)O)O2 (stereo unspecified) .
Found: 76%

Lookup: Which inhibition value belongs to COc1cc(NC(C)CCCNC(=O)Nc2cc(C(F)(F)F)cc(C(F)(F)F)c2)c2ncccc2c1 (stereo unspecified) ?
Found: 90.2%

Lookup: Item under review: COc1cc(NC(C)CCCNC(=O)Nc2cccc(O)c2)c2ncccc2c1 (stereo unspecified) . Reported inhibition?
Found: 66.9%

Lookup: Please give the measured inhibition for this compound: COc1cc(NC(C)CCCNC(=O)NNC(=O)Nc2cccc(O)c2)c2ncccc2c1 (stereo unspecified)
Found: 52.2%

---

- MEASUREMENT PROTOCOL: Growth inhibition of human SW620 cells after 72 hrs by MTT assay
- Type: functional, cell-based
- CONDITION DETAILS: SW-620, 72 h
PARAMETER: IC50 (µM)
Give your result in µM as a bare value.

Reference set, count: 5
- MOLECULE: "COc1cc(NC(C)CCCNC(=O)NNC(=O)Nc2ccc(Cl)cc2)c2ncccc2c1 (stereo unspecified)"
  UNIT NAME: "µM"
  REPORTED VALUE: 48
- MOLECULE: "COc1cc(NC(C)CCCNC(=O)Nc2cccc(C(F)(F)F)c2)c2ncccc2c1 (stereo unspecified)"
  UNIT NAME: "µM"
  REPORTED VALUE: 22
- MOLECULE: "COc1cc(NC(C)CCCNC(=O)Nc2cc(C(F)(F)F)cc(C(F)(F)F)c2)c2ncccc2c1 (stereo unspecified)"
  UNIT NAME: "µM"
  REPORTED VALUE: 3.9
- MOLECULE: "COc1cc(NC(C)CCCNC(=O)NNC(=O)Nc2ccc(Br)cc2)c2ncccc2c1 (stereo unspecified)"
  UNIT NAME: "µM"
  REPORTED VALUE: 17
- MOLECULE: "COc1cc(NC(C)CCCNC(=O)Nc2ccc(C(F)(F)F)cc2)c2ncccc2c1 (stereo unspecified)"
  UNIT NAME: "µM"
  REPORTED VALUE: 22

Lookup: Would you mind telling me what IC50 value was observed for COc1cc(NC(C)CCCNC(=O)NNC(=O)Nc2cccc(F)c2)c2ncccc2c1 (stereo unspecified) ?
Found: 9.5

Lookup: Any idea what IC50 was measured for COc1cc(NC(C)CCCNC(=O)Nc2ccc(O)cc2)c2ncccc2c1 (stereo unspecified) ?
Found: 30

Lookup: Consider the molecule COc1cc(NC(C)CCCNC(=O)Nc2ccc(F)cc2)c2ncccc2c1 (stereo unspecified) and give its measured IC50.
Found: 25

Lookup: Param item = COc1cc(NC(C)CCCNC(=O)NNC(=O)Nc2cccc(O)c2)c2ncccc2c1 (stereo unspecified) ; retrieve measured IC50.
Found: 17

Lookup: // lookup IC50 for COc1cc(NC(C)CCCNC(=O)Nc2cccc(O)c2)c2ncccc2c1 (stereo unspecified)
Found: 27

Lookup: Dear colleague, I am looking for the recorded IC50 of the following molecule: COc1cc(NC(C)CCCNC(=O)NNC(=O)Nc2ccc(C(F)(F)F)cc2)c2ncccc2c1 (stereo unspecified)
Found: 12

Lookup: // IC50 lookup, key: COc1cc(NC(C)CCCNC(=O)NNC(=O)Nc2cccc(Cl)c2)c2ncccc2c1 (stereo unspecified)
Found: 25

Lookup: Recorded IC50 of COc1cc(NC(C)CCCNC(=O)Nc2ccc(Br)cc2)c2ncccc2c1 (stereo unspecified) , please.
Found: 23

Lookup: Reported IC50, molecule COc1cc(NC(C)CCCNC(=O)Nc2cccc(F)c2)c2ncccc2c1 (stereo unspecified) : ____
Found: 27
